This collection of values is drawn from ChEMBL document CHEMBL4689842.

Readings of Population Pyknosed Nuclei (%) for the listed compounds
- System: HEK-293T
- protocol: Multiplex assay against HEK293T
- Assay type: toxicity, cell-based
- assay.context: human, 12 h, 10 µM, compound concentration 10 uM, replicate 1
Give the number first and the unit second.

Looking for the measured Population Pyknosed Nuclei (%) of `Cc1ccc(S(=O)(=O)NC2c3ccccc3Oc3ccccc32)cc1` , can you help? 30%

Next compound up: `c1ccc(-c2oc3ncnc(NC[C@@H]4CCCO4)c3c2-c2ccccc2)cc1` 59%

Another compound to look at: `CC(/C=C1\SC(=S)N(CCCC(=O)Nc2ccc(C(=O)O)c(O)c2)C1=O)=C\c1ccccc1` 54%

Try this compound too: `NC(=O)c1ccc2nc(-c3ccc(C4(N)CCC4)cc3)c(-c3ccccc3)n2n1` 19%

Also need `CC(C)c1cc(Nc2nc(N3CCC[C@H](N)C3)ncc2C(N)=O)cc(C(C)C)n1` , thanks. 86%

Can you check `CCOc1ccn(-c2ccc(F)cc2)c(=O)c1C(=O)Nc1ccc(Oc2ccnc(N)c2Cl)c(F)c1` next? 25%

Let us now turn to `C[C@@H](Oc1cc(-n2cnc3ccc(CN4CCN(C)CC4)cc32)sc1C(N)=O)c1ccccc1C(F)(F)F` 71%

How about `C=CC(=O)Nc1cc(-n2c(=O)ccc3cnc4ccc(-c5ccc(NS(C)(=O)=O)cc5)cc4c32)ccc1C` ? 60%

Try this compound too: `CCCc1cc(C)[nH]c(=O)c1CNC(=O)c1cc(-c2ccc(N3CCN(C(C)C)CC3)nc2)cc2c1cnn2C(C)C` 69%

Same thing, different compound: `Oc1cccc(-c2nc(N3CCOCC3)c3oc4ncccc4c3n2)c1` 77%

Also `Cc1ccc(NC(=O)Nc2cc(C(F)(F)F)ccc2F)cc1Nc1ccc2c(c1)NC(=O)/C2=C\c1ccc[nH]1` ? 21%

How about `Cc1c(Nc2ccc(S(=O)(=O)N3CCN(C)CC3)cc2F)nc2ccc(Nc3cnn(C4CC4)c3)cn2c1=O` ? 15%

Also `CCCCN(CC)c1nc(C)nc2c1c(C)cn2-c1c(C)cc(C)cc1C.Cl` ? 49%

Now this one: `CC(C)[C@H](CO)Nc1nc(Nc2cccc(Cl)c2)c2ncn(C(C)C)c2n1` 64%
